Data origin, for the record: the RNAGym collection of RNA variant scans (doi:10.1073/pnas.2313332121)

B1: TPR 5TU (parent)
chain: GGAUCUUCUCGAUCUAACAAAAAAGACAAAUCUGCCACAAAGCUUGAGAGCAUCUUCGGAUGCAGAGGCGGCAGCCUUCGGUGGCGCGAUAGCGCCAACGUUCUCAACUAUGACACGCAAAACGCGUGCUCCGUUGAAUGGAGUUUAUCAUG

variants of: B1; assay: polymerase ribozyme fitness, log enrichment relative to wild type (log ratio); higher = more active; in vitro selection for triplet polymerase activity
Fewer inactive variants are shown than the library holds.
outcome.measure: polymerase ribozyme fitness (log ratio)

G48C A49C A60G U61A A66G C87A = ≤ -4.2

Supply measured polymerase ribozyme fitness (log ratio) of A29G A37U A47U U55A G84U A89G A120C G140C U144G in your reply. ≤ -4.2

Supply measured polymerase ribozyme fitness (log ratio) of U101A U109G C118U C125G A138G G141A in your reply. ≤ -4.2
